Cited source: paper PMC9023544

system: HEK293 (human embryonic kidney cell line); experiment: Cytotoxic activity, non-cancerous cell line, resazurin, 72 h; assay type: cell-based; conditions: Homo sapiens, HEK293; 72 h, mean ± SEM, n=3
Below is a list of entries, each paired with its recorded IC50 value.
Write down the numeric answer in nM and omit the unit.

Example results:
| compound | IC50 / nM |
| --- | --- |
| N#CC[Se]C(=O)c1cc(C(F)(F)F)cc(C(F)(F)F)c1 [N7] | 6600 |
| CC(=O)C[Se]C(=O)c1ccccc1F [K2] | 1200 |

Which measured IC50 belongs to CC(=O)C[Se]C(=O)c1ccc(Br)cc1 [K3] , tested on HEK293 (human embryonic kidney cell line)? 2400

* * *

system: MCF-7/PAX (paclitaxel-resistant sub-line); assay: Cytotoxic activity, 2D, resazurin, 72 h; assay type: cell-based, human; settings: Homo sapiens, MCF7; 2D, 72 h, mean ± SEM, n=3; read-out: MCF-7/PAX IC50
metric: IC50 (µM)
Answer in µM, number only, no unit symbol.

These solved cases illustrate the format of a correct answer.
| compound | numeric-value |
| --- | --- |
| N#CC[Se]C(=O)c1ccc(Br)cc1 | 2.7 |
| CC(=O)O[C@H]1C(=O)[C@@]2(C)[C@H]([C@H](OC(=O)c3ccccc3)[C@]3(O)C[C@H](OC(=O)[C@H](O)[C@@H](NC(=O)c4ccccc4)c4ccccc4)C(C)=C1C3(C)C)[C@]1(OC(C)=O)CO[C@@H]1C[C@@H]2O [PAX, paclitaxel, reference compound] | 1.5 |
| N#CC[Se]C(=O)c1cccc(C(F)(F)F)c1 | 2.7 |
| CC(=O)C[Se]C(=O)c1cc(F)c(F)cc1F | 2 |
| CC(=O)C[Se]C(=O)c1cccc(C(F)(F)F)c1 | 2.8 |
| N#CC[Se]C(=O)c1ccccc1C(F)(F)F | 2.4 |

Value lookup for IC50; key = `N#CC[Se]C(=O)c1cccc(F)c1` 2.5

Name the recorded IC50 for `CC(=O)C[Se]C(=O)c1ccc(F)c(Cl)c1` . 2.3

Any idea what IC50 was measured for `N#CC[Se]C(=O)c1ccc(F)c(Cl)c1` ? 1.9

Which IC50 reading was recorded for the compound `CC(=O)C[Se]C(=O)c1cccs1` ? 2.2

I have this compound here, `N#CC[Se]C(=O)c1cccs1` , and I need its recorded IC50. 2.5

Item under review: `N#CC[Se]C(=O)c1cc(C(F)(F)F)cc(C(F)(F)F)c1` . Reported IC50? 2.7

Consider the compound shown here: `CC(=O)C[Se]C(=O)c1ccccc1F` What is its recorded IC50? 1.9

* * *

test system: HEK293 (human embryonic kidney cell line); assay: Cytotoxic activity, non-cancerous cell line, resazurin, 72 h; format: cell-based; conditions: Homo sapiens, HEK293; 72 h, mean ± SEM, n=3
metric: IC50 (µM)
Give your result in µM as a bare value.

Report IC50 for CC(=O)C[Se]C(=O)c1ccccc1C(F)(F)F [K4] please. 5.4

Bench note: what IC50 did N#CC[Se]C(=O)c1cccc(C(F)(F)F)c1 [N5] show? 6

Looking for the measured IC50 of CC(=O)C[Se]C(=O)c1cccs1 [K1] , can you help? 1

For the molecule N#CC[Se]C(=O)c1ccccc1C(F)(F)F [N4] , what IC50 is on record? 5.2

Find the recorded IC50 belonging to N#CC[Se]C(=O)c1ccc(F)c(Cl)c1 [N6] and report it. 4.9

Tell me the measured IC50 of CC(=O)C[Se]C(=O)c1ccc(C(C)(C)C)cc1 [K7] , please. 1.5

Could you tell me which IC50 is on file for N#CC[Se]C(=O)c1ccc(Br)cc1 [N3] ? 8

Name the reported IC50 value associated with the molecule CC(=O)C[Se]C(=O)c1ccc(F)c(Cl)c1 [K6] 2

Fill blank: measured IC50 of the molecule N#CC[Se]C(=O)c1cccs1 [N1] is ____. 6

Find the recorded IC50 belonging to CC(=O)C[Se]C(=O)c1cc(F)c(F)cc1F [K8] and report it. 2

Record request: IC50 value, item CC(=O)C[Se]C(=O)c1cccc(C(F)(F)F)c1 [K5] 1.6

Suppose we examine the molecule N#CC[Se]C(=O)c1cccc(F)c1 [N2] ; what IC50 value has been reported? 7.8

* * *

test system: HOC (human parental ovarian adenocarcinoma, A2780); assay: Cytotoxic activity, 2D, resazurin, 72 h; format: cell-based; settings: Homo sapiens, A2780, 72 h, 2D, 72 h, mean ± SEM, n=3; read-out: HOC IC50
Counter-ions that a name gives are not always drawn.
Property: IC50; scope: individual molecules
Reply numerically in nM, unit not repeated.

Study these solved cases before continuing.
| molecule | numeric-value |
| --- | --- |
| N#CC[Se]C(=O)c1ccc(Br)cc1 [N3] | 6500 |
| N#CC[Se]C(=O)c1cc(C(F)(F)F)cc(C(F)(F)F)c1 [N7] | 2900 |
| N#CC[Se]C(=O)c1cccc(C(F)(F)F)c1 [N5] | 2300 |
| CC(=O)C[Se]C(=O)c1cccc(C(F)(F)F)c1 [K5] | 1100 |
| N#CC[Se]C(=O)c1cccc(F)c1 [N2] | 7100 |

Record request: IC50 value, item N#CC[Se]C(=O)c1ccccc1C(F)(F)F [N4] 2400

Consider the molecule shown here: CC(=O)C[Se]C(=O)c1cc(F)c(F)cc1F [K8] What is its recorded IC50? 2100

Using the record for N#CC[Se]C(=O)c1ccc(F)c(Cl)c1 [N6] , report its IC50. 2400

Which value of IC50 has been reported for COc1cccc2c1C(=O)c1c(O)c3c(c(O)c1C2=O)C[C@@](O)(C(=O)CO)C[C@@H]3O[C@H]1C[C@H](N)[C@H](O)[C@H](C)O1 [ADR, doxorubicin hydrochloride, reference compound] in the records? 10

Which measured IC50 value corresponds to N#CC[Se]C(=O)c1cccs1 [N1] ? 2700

* * *

Reported IC50 values for a set of compounds
system: MCF-7/PAX (paclitaxel-resistant sub-line); assay: Cytotoxic activity, 2D, resazurin, 72 h; type: cell-based, human; settings: Homo sapiens, MCF7, 72 h, read-out: MCF-7/PAX IC50
Give a bare numeral; the unit µM is implied.

For the record `CC(=O)C[Se]C(=O)c1ccc(Br)cc1` , what value of IC50 is listed for MCF-7/PAX (paclitaxel-resistant sub-line)? 2.1

Field: IC50 (MCF-7/PAX (paclitaxel-resistant sub-line)). Entry: `CC(=O)C[Se]C(=O)c1ccc(C(C)(C)C)cc1` 2.4

Lab request: please report IC50 under test system MCF-7/PAX (paclitaxel-resistant sub-line) for `CC(=O)C[Se]C(=O)c1ccccc1C(F)(F)F` 3.3

* * *

test system: HOC/ADR; assay: Sensitization of MDR cell line to Adriamycin; assay type: cell-based, human; details: IC50 of Adriamycin / IC50 of Adriamycin with IC10 dose of compound
metric: Fold change

| compound-string | result |
| --- | --- |
| CC(=O)C[Se]C(=O)c1ccccc1C(F)(F)F | (1.4 ± 0.1)× |
| N#CC[Se]C(=O)c1cc(C(F)(F)F)cc(C(F)(F)F)c1 | (1.1 ± 0.1)× |
| CC(=O)C[Se]C(=O)c1cccs1 | (1.3 ± 0.1)× |
| CC(=O)C[Se]C(=O)c1ccc(Br)cc1 | (1.4 ± 0.1)× |

State the recorded Fold change for this entry: `CC(=O)C[Se]C(=O)c1cc(F)c(F)cc1F` (1.1 ± 0.1)×

Please report the recorded Fold change for `N#CC[Se]C(=O)c1ccccc1C(F)(F)F` . (1.3 ± 0.1)×

Fill in: Fold change of `CC(=O)C[Se]C(=O)c1ccc(F)c(Cl)c1` is ___ (1.1 ± 0.1)×

* * *

system: HOC/ADR (sub-line resistant to Adriamycin, A2780/ADR); assay: Cytotoxic activity, 2D, resazurin, 72 h; type: cell-based, human; conditions: IC50 HOC / IC50 HOC/ADR
Each entry below carries its recorded CS (collateral sensitivity index).
No unit in the answer, please; the number alone is enough.

Solved cases below.
| molecule | CS (collateral sensitivity index) |
| --- | --- |
| CC(=O)C[Se]C(=O)c1cccc(C(F)(F)F)c1 [K5] | 0.5 |
| N#CC[Se]C(=O)c1ccc(Br)cc1 [N3] | 1.3 |
| CC(=O)C[Se]C(=O)c1ccccc1C(F)(F)F [K4] | 0.6 |
| N#CC[Se]C(=O)c1cccc(F)c1 [N2] | 1.5 |
| CC(=O)C[Se]C(=O)c1ccccc1F [K2] | 0.3 |

Query molecule follows.
Which CS (collateral sensitivity index) value is on record for CC(=O)C[Se]C(=O)c1ccc(C(C)(C)C)cc1 [K7] ? 0.4

* * *

test system: HOC (human parental ovarian adenocarcinoma, A2780); experiment: Cytotoxic activity, 2D, resazurin, 72 h; type: cell-based; settings: IC50 HEK293 / IC50 HOC
metric: SI HEK293/HOC
# respond with the number and nothing more

| compound-string | target-of-assay | SI HEK293/HOC |
| --- | --- | --- |
| N#CC[Se]C(=O)c1cc(C(F)(F)F)cc(C(F)(F)F)c1 | HOC (human parental ovarian adenocarcinoma, A2780) | 2.3 |

For HOC (human parental ovarian adenocarcinoma, A2780), provide SI HEK293/HOC of `CC(=O)C[Se]C(=O)c1ccccc1C(F)(F)F` please. 2.5

Could you share what SI HEK293/HOC was measured for `N#CC[Se]C(=O)c1cccc(C(F)(F)F)c1` , tested on HOC (human parental ovarian adenocarcinoma, A2780)? 2.7

Lookup: SI HEK293/HOC / HOC (human parental ovarian adenocarcinoma, A2780) / `CC(=O)C[Se]C(=O)c1ccccc1F` 1.6

Return SI HEK293/HOC measured with HOC (human parental ovarian adenocarcinoma, A2780) given this compound: `CC(=O)C[Se]C(=O)c1ccc(Br)cc1` 1.3

Lookup: SI HEK293/HOC / HOC (human parental ovarian adenocarcinoma, A2780) / `CC(=O)C[Se]C(=O)c1cccc(C(F)(F)F)c1` 1.5
